For each of the substances below, state its IL-6 level.
System: IL-1β, IL-6, IFN-γ, TNF-α, IL-8, MIP-1α, MCP-1, MIP-1β, RANTES
Assay: Cytokine and chemokine assays in cynomolgus monkeys (Example 46)
Type: in vivo
Settings: day-14 (before start of treatment)
Strand notation (5' to 3'): a small letter for the sugar, then the base; units joined by * are phosphorothioate-linked, units joined directly phosphodiester-linked; [ ] holds rarer units or linkages, { } end groups; capitals alone tell only the bases. e = 2'-O-(2-methoxyethyl) (MOE); [5mC] = 5-methylcytosine; d = 2'-deoxy (DNA)
Numbers only; they are read as pg/mL.

Notebook: ISIS 449708: 3-8-3, 4-8-4, 2-10-2, 3-10-3 or 4-10-4 MOE microwalk gapmer (Table 46) (antisense eA*e[5mC]*eA*dG*dT*dT*dT*d[5mC]*dT*dG*dG*e[5mC]*eA*eG) , IL-6 level read as 1

Please fill in: IL-6 level reported for ISIS 416858: MOE gapmer, nucleobases 1275 to 1318 of SEQ ID NO: 1 (Table 8) (antisense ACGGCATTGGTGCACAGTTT; MOE gapmer, wing and gap sizes not given here) = 0

Query ISIS 445531: 5-8-5 or 6-8-6 MOE microwalk gapmer (Table 44) (antisense eG*eG*e[5mC]*eA*eT*dT*dG*dG*dT*dG*d[5mC]*dA*d[5mC]*eA*eG*eT*eT*eT) yields IL-6 level of 2

Entry ISIS 445522: 5-8-5 or 6-8-6 MOE microwalk gapmer (Table 44) (antisense eG*e[5mC]*eA*e[5mC]*eA*dG*dT*dT*dT*d[5mC]*dT*dG*dG*e[5mC]*eA*eG*eG*e[5mC]) — recorded IL-6 level = 5

Consider ISIS 449710: 3-8-3, 4-8-4, 2-10-2, 3-10-3 or 4-10-4 MOE microwalk gapmer (Table 46) (antisense e[5mC]*eA*e[5mC]*dA*dG*dT*dT*dT*d[5mC]*dT*dG*dG*d[5mC]*eA*eG*eG) . Its measured IL-6 level is 7

# substance ISIS 416850: MOE gapmer, nucleobases 1275 to 1318 of SEQ ID NO: 1 (Table 8) (antisense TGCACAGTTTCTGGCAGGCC; MOE gapmer, wing and gap sizes not given here) ; its IL-6 level = 1

In plain terms, ISIS 449711: 3-8-3, 4-8-4, 2-10-2, 3-10-3 or 4-10-4 MOE microwalk gapmer (Table 46) (antisense eA*e[5mC]*dA*dG*dT*dT*dT*d[5mC]*dT*dG*dG*d[5mC]*eA*eG) has a documented IL-6 level of 2

Reported IL-6 level ( ISIS 449709: 3-8-3, 4-8-4, 2-10-2, 3-10-3 or 4-10-4 MOE microwalk gapmer (Table 46) (antisense eG*e[5mC]*eA*e[5mC]*dA*dG*dT*dT*dT*d[5mC]*dT*dG*dG*d[5mC]*eA*eG*eG*e[5mC]) ) = 1

IL-6 level reported for this substance ISIS 449707: 3-8-3, 4-8-4, 2-10-2, 3-10-3 or 4-10-4 MOE microwalk gapmer (Table 46) (antisense e[5mC]*eA*e[5mC]*eA*dG*dT*dT*dT*d[5mC]*dT*dG*dG*e[5mC]*eA*eG*eG) : 1

---

Assignment: determine reported MIP-1ß level for the given substances.
Test system: IL-1β, IL-6, IFN-γ, TNF-α, IL-8, MIP-1α, MCP-1, MIP-1β, RANTES
Test: Cytokine and chemokine assays in cynomolgus monkeys (Example 46)
Assay type: in vivo
Conditions: day 55
Strand notation (5' to 3'): a small letter for the sugar, then the base; units joined by * are phosphorothioate-linked, units joined directly phosphodiester-linked; [ ] holds rarer units or linkages, { } end groups; capitals alone tell only the bases. e = 2'-O-(2-methoxyethyl) (MOE); [5mC] = 5-methylcytosine; d = 2'-deoxy (DNA)
Give your result in pg/mL as a bare value.

// MIP-1ß level value for ISIS 416850: MOE gapmer, nucleobases 1275 to 1318 of SEQ ID NO: 1 (Table 8) (antisense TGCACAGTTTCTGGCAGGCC; MOE gapmer, wing and gap sizes not given here) : 50

Input ISIS 449710: 3-8-3, 4-8-4, 2-10-2, 3-10-3 or 4-10-4 MOE microwalk gapmer (Table 46) (antisense e[5mC]*eA*e[5mC]*dA*dG*dT*dT*dT*d[5mC]*dT*dG*dG*d[5mC]*eA*eG*eG) . Output MIP-1ß level: 53

Note to self: MIP-1ß level recorded for ISIS 449708: 3-8-3, 4-8-4, 2-10-2, 3-10-3 or 4-10-4 MOE microwalk gapmer (Table 46) (antisense eA*e[5mC]*eA*dG*dT*dT*dT*d[5mC]*dT*dG*dG*e[5mC]*eA*eG) was 128

Summary for this substance, ISIS 445522: 5-8-5 or 6-8-6 MOE microwalk gapmer (Table 44) (antisense eG*e[5mC]*eA*e[5mC]*eA*dG*dT*dT*dT*d[5mC]*dT*dG*dG*e[5mC]*eA*eG*eG*e[5mC]) : MIP-1ß level is 63

---

Task for the reader: assign each of the following substances its reported body weights.
Assay: Body and organ weights of cynomolgus monkeys (Example 45)
Format: in vivo
Conditions: day 50; escalating dose regimen
Only the number, expressed in g, is required.

The reported value for ISIS 416850: MOE gapmer, nucleobases 1275 to 1318 of SEQ ID NO: 1 (Table 8) (antisense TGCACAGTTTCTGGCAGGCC; MOE gapmer, wing and gap sizes not given here) in terms of body weights is 2613

Short answer for ISIS 416864: MOE gapmer, nucleobases 1275 to 1318 of SEQ ID NO: 1 (Table 8) (antisense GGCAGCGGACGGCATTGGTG; MOE gapmer, wing and gap sizes not given here) : body weights was 3408

For reference, reported body weights for ISIS 416838: MOE gapmer, nucleobases 1018 to 1042 of SEQ ID NO: 1 (Table 6) (antisense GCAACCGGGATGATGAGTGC; MOE gapmer, wing and gap sizes not given here) stands at 2731

For record ISIS 416858: MOE gapmer, nucleobases 1275 to 1318 of SEQ ID NO: 1 (Table 8) (antisense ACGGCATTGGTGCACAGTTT; MOE gapmer, wing and gap sizes not given here) the listed body weights is 2646

Reported body weights ( ISIS 417002: MOE gapmer, nucleobases 1275 to 1318 of SEQ ID NO: 1 (Table 8) (antisense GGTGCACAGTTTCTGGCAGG; MOE gapmer, wing and gap sizes not given here) ) = 2652

---

System: human Factor 11 mRNA
Test: Dose-dependent inhibition of human Factor 11 in HepB3 cells, lipofectin (Example 7)
Assay type: cell-based
Settings: 9.4 nM, ~16 hours
Description: Cells were plated at a density of 4,000 cells per well and transfected using lipofectin reagent with 2.3 nM, 4.7 nM, 9.4 nM, 18.75 nM, 37.5 nM, and 75 nM concentrations of antisense oligonucleotide, as specified in Table 14. After a treatment period of approximately 16 hours, RNA was isolated from the cells and human Factor 11 mRNA levels were measured by quantitative real-time PCR. […] Factor 11 mRNA levels were adjusted according to total RNA content, as measured by RIBOGREEN. […]
# percent inhibition of Factor 11 mRNA relative to untreated control cells >= 40% gives class 1, anything below gives class 0

Please tell me: is the substance 416864 (antisense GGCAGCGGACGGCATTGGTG; 5-10-5 gapmer, further chemistry not given here) [compound 416864] at or over 40% in terms of percent inhibition of Factor 11 mRNA relative to untreated control cells?
class 1

# bool: percent inhibition of Factor 11 mRNA relative to untreated control cells of 416838 (antisense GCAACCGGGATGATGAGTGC; 5-10-5 gapmer, further chemistry not given here) [compound 416838] >= 40%
class 1

Please check the record 416925 (antisense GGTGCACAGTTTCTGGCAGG; 3-14-3 gapmer chemistry, further chemistry not given here) [compound 416925] and state if its percent inhibition of Factor 11 mRNA relative to untreated control cells is at or above 40%.
class 1

Assess whether reported percent inhibition of Factor 11 mRNA relative to untreated control cells for 416825 (antisense GCCCTTCATGTCTAGGTCCA; 5-10-5 gapmer, further chemistry not given here) [compound 416825] sits at 40% or higher.
class 0

Tell me whether percent inhibition of Factor 11 mRNA relative to untreated control cells is at least 40% here: 416826 (antisense ATGCCCTTCATGTCTAGGTC; 5-10-5 gapmer, further chemistry not given here) [compound 416826]
class 0

State whether the measured percent inhibition of Factor 11 mRNA relative to untreated control cells reaches 40%, counting equality as reaching it, for 417002 (antisense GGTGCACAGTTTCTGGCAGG; 2-13-5 gapmer chemistry, further chemistry not given here) [compound 417002]
class 1

Please tell me: is the substance 416999 (antisense GCACAGTTTCTGGCAGGCCT; 2-13-5 gapmer chemistry, further chemistry not given here) [compound 416999] at or over 40% in terms of percent inhibition of Factor 11 mRNA relative to untreated control cells?
class 1
